Data provenance: PubChem BioAssay (Tox21)

- Assay procedure: qHTS assay to identify small molecule antagonists of the constitutive androstane receptor (CAR) signaling pathway - cell viability counter screen (AID 1224837); further: nearly all actives have a fitted effect of over 45% in size
- Run conditions: HepG2-CYP2B6-hCAR viability, CellTiter-Fluor, 23 h, co-treated with 50 nM CITCO; series mostly up to 92.4 µM
Inconclusive results are not listed. Active and inactive are the calls of the source. The call rests on the fitted dose curve; in most records, active means well fitted cell-killing curve with a large enough effect in the repeat runs; inconclusive means weak or mixed curves, or effect the other way; inactive means flat fitted curve, though single readings scatter.
Give one outcome, nothing more. List: TRUE = active, FALSE = inactive

Compound: CC1=C(/C=C/C(C)=C/C=C/C(C)=C/C(=O)Nc2ccc(O)cc2)C(C)(C)CCC1
Cat: TRUE
--
Compound: Clc1ccc(C(c2ccccc2Cl)C(Cl)Cl)cc1 (centres undefined)
Cat: FALSE
--
Compound: S=C(SSSSSSC(=S)N1CCCCC1)N1CCCCC1
Cat: TRUE
--
Compound: C[Si](C)(C)Cl
Cat: FALSE
--
Compound: CCCN(CCc1cccs1)[C@H]1CCc2c(O)cccc2C1
Cat: FALSE
--
Compound: C=CC(C)(CCC=C(C)C)OC(=O)/C=C/c1ccccc1 (centres undefined)
Cat: FALSE
--
Compound: O=Nc1ccc(NO)cc1
Cat: FALSE
--
Compound: COC(=O)NCCC[Si](OC)(OC)OC
Cat: FALSE

Req: How did this test come out for `Cc1ccc(N)cc1O` ?
Resp: FALSE

Req: How did this test come out for `COc1cc(C(=O)NS(=O)(=O)c2ccccc2C)ccc1Cc1cn(C)c2ccc(NC(=O)OC3CCCC3)cc12` ?
Resp: FALSE

Req: How did this test come out for `CC(C)C(=O)OCc1ccccc1` ?
Resp: FALSE

Req: How did this test come out for `c1ccc(Nc2cccc3ccccc23)cc1` ?
Resp: FALSE

Req: How did this test come out for `CCCCCCCCCCCCCc1ccccc1` ?
Resp: FALSE

Req: How did this test come out for `C=CC(=O)OCCN(CC)CC` ?
Resp: FALSE

Req: How did this test come out for `CCOCOCC` ?
Resp: FALSE

====

- Assay procedure: qHTS RealTime-Glo MT Cell Viability Assay in HEK293 cells - 24 hour (AID 1224886); further: nearly all actives have a fitted effect of over 50% in size
- Run conditions: RealTime-Glo luminescence; series mostly up to 76.8 µM
Results filed as inconclusive are left out. Calls of active or inactive are those of the source. The call rests on the fitted dose curve; in most records, active means well fitted cell-killing curve with a large enough effect in the repeat runs; inconclusive means weak or mixed curves, or effect the other way; inactive means flat fitted curve, though single readings scatter.
Give one outcome, nothing more. List: True = active, False = inactive

Solved cases below.
Molecule: CCN(CC)CCNc1ccc(CO)c2sc3ccccc3c(=O)c12
Cat: True

Molecule: C=CC(=C)CCC=C(C)C
Cat: False

Molecule: CN(C)c1ccc(N=Nc2ccccc2C(=O)O)cc1
Cat: False

Molecule: CCc1cccc(CC)c1NC(=O)C(=O)O
Cat: False

Molecule: C=CC/C=C/C/C=C/C/C=C/C
Cat: False

Molecule: C[Si](C)(C)Cl
Cat: False

Molecule: CC(=O)OC(OC(C)=O)c1ccc([N+](=O)[O-])o1
Cat: True

Molecule: C/C=C/C(=O)Oc1c(CCCCCC(C)C)cc([N+](=O)[O-])cc1[N+](=O)[O-]
Cat: True

Req: How did this test come out for `c1ccc2c(c1)CCC2` ?
Resp: False

Req: How did this test come out for `CC(=O)OC1CCCCC1` ?
Resp: False

Req: How did this test come out for `CCCN(CCc1cccs1)[C@H]1CCc2c(O)cccc2C1` ?
Resp: True

Req: How did this test come out for C=CC(=O)OCC(O)COc1ccccc1 (stereo not drawn) ?
Resp: False

Req: How did this test come out for Clc1ccc(C(Cn2ccnc2)OCc2c(Cl)cccc2Cl)c(Cl)c1 (stereo not drawn) ?
Resp: True
